Cited source for all entries: patent US20250034116A1

# Tested on: CYP enzymes in human liver microsomes (HLM)
# Assay Procedure: Inhibition of 20-HETE production in human liver microsomes (HLM)
# Type: biochemical
# Condition Notes: 500 nM
Measured Metric: HLM (% inh @ 500 nM)
# output: number + unit

Here is how some compounds turned out for HLM (% inh @ 500 nM).
smiles_text=O=C(NCc1ccccc1)N1CCN(c2ccc(-c3cn[nH]c3)c(F)c2F)CC1 reported_result=92.79%
smiles_text=O=C1CCCN1CC1CCN(c2ccc(-c3cnoc3)c(F)c2F)CC1 reported_result=82.89%
smiles_text=O=C(C1CCN(c2ccc(-c3cn[nH]c3)cc2)CC1)N1CCCC1 reported_result=79.80%
smiles_text=O=C(Nc1ccc2occc2c1)C1CCN(c2ccc(-c3cn[nH]c3)cc2)CC1 reported_result=85.05%
smiles_text=O=C(N1CCCC1)N1CCC(c2ccc(-c3cn[nH]c3)c(F)c2F)CC1 reported_result=95.89%
smiles_text=C#CCCCCCC(=O)NCC1CCN(c2ccc(-c3cn[nH]c3)cc2)CC1 reported_result=85.59%
smiles_text=O=C(C1CCN(c2ccc(-c3cn[nH]c3)cc2)CC1)N1CCOCC1 reported_result=57.59%
smiles_text=O=C1CCC(=O)N1CC1CCN(c2ccc(-c3cn[nH]c3)cc2)CC1 reported_result=55.98%

In: Enter recorded HLM (% inh @ 500 nM) with CYP enzymes in human liver microsomes (HLM) for "O=C(CC1CCCC1)N1CCC(c2ccc(-c3cn[nH]c3)c(F)c2F)CC1" here.
Out: 91.77%

---

# Tested on: CYP enzymes in human liver microsomes (HLM)
# Assay Procedure: Inhibition of 20-HETE production in human liver microsomes (HLM)
# Type: biochemical
# Condition Notes: 500 nM
Lab note - cut at 80% for HLM (% inh @ 500 nM): satisfied if strictly below, not satisfied if not.

Worked examples, 3 compounds total:
compound="O=C(C1CCN(c2ccc(-c3cn[nH]c3)cc2)CC1)N1CC2CCC1C2 (centres unmarked)" target_of_assay="CYP enzymes in human liver microsomes (HLM)" class=satisfied
compound=O=C(NCC1CCCC1)N1CCN(c2ccc(-c3cn[nH]c3)c(F)c2F)CC1 target_of_assay="CYP enzymes in human liver microsomes (HLM)" class="not satisfied"
compound=O=C(N1CCCC1)N1CC2CCC(C1)N2c1ccc(-c2cn[nH]c2)c(F)c1F target_of_assay="CYP enzymes in human liver microsomes (HLM)" class="not satisfied"

In: Hello, I'm reviewing records and need to know if HLM (% inh @ 500 nM) of "O=Cc1cc(-c2cn[nH]c2)ccc1N1CCC(CN2CCCC2=O)CC1" is below 80%. Could you check?
Out: satisfied

In: Hello, I'm reviewing records and need to know if HLM (% inh @ 500 nM) of "O=C(C1CCCC1)N1CCC(c2c(F)cc(-c3cn[nH]c3)cc2F)CC1" is below 80%. Could you check?
Out: not satisfied

---

# Tested on: CYP enzymes in human liver microsomes (HLM)
# Assay Procedure: Inhibition of 20-HETE production in human liver microsomes (HLM)
# Assay type: biochemical
# Condition Notes: 500 nM
Lab note - cut at 80% for HLM (% inh @ 500 nM): 1 if strictly below, -1 if not.

Worked examples, 5 compounds total:
compound="O=C1CCCN1CC1CCN(c2ccc(-c3ccno3)cc2)CC1 [Compound 34]" class=1
compound="O=C(N1CCC(c2ccc(-c3cn[nH]c3)c(F)c2F)CC1)C1(O)CCCCC1 [Compound 110]" class=-1
compound="O=C(NCc1ccccc1)C1CCN(c2ccc(-c3cn[nH]c3)c(F)c2F)CC1 [Compound 95]" class=-1
compound="O=C(NC1CCCC1)N1CCN(c2ccc(-c3cn[nH]c3)c(F)c2F)CC1 [Compound 89]" class=-1
compound="O=C(C1CCCCC1)N1CCC(c2ccc(-c3cn[nH]c3)c(F)c2F)CC1 [Compound 97]" class=-1

In: Hello, I'm reviewing records and need to know if HLM (% inh @ 500 nM) of Cc1cc(-c2cn[nH]c2)ccc1N1CCC(CN2CCCC2=O)CC1 [Compound 12] is below 80%. Could you check?
Out: 1

In: Hello, I'm reviewing records and need to know if HLM (% inh @ 500 nM) of CC(=O)NCC1CCN(c2ccc(-c3cn[nH]c3)cc2)CC1 [Compound 43] is below 80%. Could you check?
Out: 1

In: Hello, I'm reviewing records and need to know if HLM (% inh @ 500 nM) of O=C(Nc1ccc(F)cc1)C1CCN(c2ccc(-c3cn[nH]c3)cc2)CC1 [Compound 61] is below 80%. Could you check?
Out: -1

In: Hello, I'm reviewing records and need to know if HLM (% inh @ 500 nM) of O=C(C1CCCC1)N1CCC2(CCN(c3ccc(-c4cn[nH]c4)cc3F)C2)C1 (stereo not shown) [Compound 124] is below 80%. Could you check?
Out: -1

In: Hello, I'm reviewing records and need to know if HLM (% inh @ 500 nM) of O=C(C1CCCC1)N1CCC(c2ccc(-c3cn[nH]c3)cc2)CC1 [Compound 70] is below 80%. Could you check?
Out: -1

In: Hello, I'm reviewing records and need to know if HLM (% inh @ 500 nM) of O=C1N(CC2CCN(c3ccc(-c4cn[nH]c4)cc3)CC2)CCC12CCCCC2 [Compound 31] is below 80%. Could you check?
Out: 1

In: Hello, I'm reviewing records and need to know if HLM (% inh @ 500 nM) of O=C1CCCN1CC1C2CN(c3ccc(-c4cn[nH]c4)cc3)CC12 (stereo not shown) [Compound 125] is below 80%. Could you check?
Out: -1

In: Hello, I'm reviewing records and need to know if HLM (% inh @ 500 nM) of COc1cc(-c2cn[nH]c2)ccc1N1CCC(CN2CCCC2=O)CC1 [Compound 14] is below 80%. Could you check?
Out: 1

In: Hello, I'm reviewing records and need to know if HLM (% inh @ 500 nM) of O=C(C1CCN(c2ccc(-c3cn[nH]c3)cc2)CC1)N1CCNCC1 [Compound 51] is below 80%. Could you check?
Out: 1

In: Hello, I'm reviewing records and need to know if HLM (% inh @ 500 nM) of COC(=O)c1cc(-c2cn[nH]c2)ccc1N1CCC(CN2CCCC2=O)CC1 [Compound 18] is below 80%. Could you check?
Out: 1

In: Hello, I'm reviewing records and need to know if HLM (% inh @ 500 nM) of O=C1CCCCC1C(=O)N1CCC(c2ccc(-c3cn[nH]c3)c(F)c2F)CC1 (stereo not shown) [Compound 109] is below 80%. Could you check?
Out: 1
